target: human Cav2.2 (Homo sapiens, UniProt Q00975)
Sequence (Q00975 whole entry): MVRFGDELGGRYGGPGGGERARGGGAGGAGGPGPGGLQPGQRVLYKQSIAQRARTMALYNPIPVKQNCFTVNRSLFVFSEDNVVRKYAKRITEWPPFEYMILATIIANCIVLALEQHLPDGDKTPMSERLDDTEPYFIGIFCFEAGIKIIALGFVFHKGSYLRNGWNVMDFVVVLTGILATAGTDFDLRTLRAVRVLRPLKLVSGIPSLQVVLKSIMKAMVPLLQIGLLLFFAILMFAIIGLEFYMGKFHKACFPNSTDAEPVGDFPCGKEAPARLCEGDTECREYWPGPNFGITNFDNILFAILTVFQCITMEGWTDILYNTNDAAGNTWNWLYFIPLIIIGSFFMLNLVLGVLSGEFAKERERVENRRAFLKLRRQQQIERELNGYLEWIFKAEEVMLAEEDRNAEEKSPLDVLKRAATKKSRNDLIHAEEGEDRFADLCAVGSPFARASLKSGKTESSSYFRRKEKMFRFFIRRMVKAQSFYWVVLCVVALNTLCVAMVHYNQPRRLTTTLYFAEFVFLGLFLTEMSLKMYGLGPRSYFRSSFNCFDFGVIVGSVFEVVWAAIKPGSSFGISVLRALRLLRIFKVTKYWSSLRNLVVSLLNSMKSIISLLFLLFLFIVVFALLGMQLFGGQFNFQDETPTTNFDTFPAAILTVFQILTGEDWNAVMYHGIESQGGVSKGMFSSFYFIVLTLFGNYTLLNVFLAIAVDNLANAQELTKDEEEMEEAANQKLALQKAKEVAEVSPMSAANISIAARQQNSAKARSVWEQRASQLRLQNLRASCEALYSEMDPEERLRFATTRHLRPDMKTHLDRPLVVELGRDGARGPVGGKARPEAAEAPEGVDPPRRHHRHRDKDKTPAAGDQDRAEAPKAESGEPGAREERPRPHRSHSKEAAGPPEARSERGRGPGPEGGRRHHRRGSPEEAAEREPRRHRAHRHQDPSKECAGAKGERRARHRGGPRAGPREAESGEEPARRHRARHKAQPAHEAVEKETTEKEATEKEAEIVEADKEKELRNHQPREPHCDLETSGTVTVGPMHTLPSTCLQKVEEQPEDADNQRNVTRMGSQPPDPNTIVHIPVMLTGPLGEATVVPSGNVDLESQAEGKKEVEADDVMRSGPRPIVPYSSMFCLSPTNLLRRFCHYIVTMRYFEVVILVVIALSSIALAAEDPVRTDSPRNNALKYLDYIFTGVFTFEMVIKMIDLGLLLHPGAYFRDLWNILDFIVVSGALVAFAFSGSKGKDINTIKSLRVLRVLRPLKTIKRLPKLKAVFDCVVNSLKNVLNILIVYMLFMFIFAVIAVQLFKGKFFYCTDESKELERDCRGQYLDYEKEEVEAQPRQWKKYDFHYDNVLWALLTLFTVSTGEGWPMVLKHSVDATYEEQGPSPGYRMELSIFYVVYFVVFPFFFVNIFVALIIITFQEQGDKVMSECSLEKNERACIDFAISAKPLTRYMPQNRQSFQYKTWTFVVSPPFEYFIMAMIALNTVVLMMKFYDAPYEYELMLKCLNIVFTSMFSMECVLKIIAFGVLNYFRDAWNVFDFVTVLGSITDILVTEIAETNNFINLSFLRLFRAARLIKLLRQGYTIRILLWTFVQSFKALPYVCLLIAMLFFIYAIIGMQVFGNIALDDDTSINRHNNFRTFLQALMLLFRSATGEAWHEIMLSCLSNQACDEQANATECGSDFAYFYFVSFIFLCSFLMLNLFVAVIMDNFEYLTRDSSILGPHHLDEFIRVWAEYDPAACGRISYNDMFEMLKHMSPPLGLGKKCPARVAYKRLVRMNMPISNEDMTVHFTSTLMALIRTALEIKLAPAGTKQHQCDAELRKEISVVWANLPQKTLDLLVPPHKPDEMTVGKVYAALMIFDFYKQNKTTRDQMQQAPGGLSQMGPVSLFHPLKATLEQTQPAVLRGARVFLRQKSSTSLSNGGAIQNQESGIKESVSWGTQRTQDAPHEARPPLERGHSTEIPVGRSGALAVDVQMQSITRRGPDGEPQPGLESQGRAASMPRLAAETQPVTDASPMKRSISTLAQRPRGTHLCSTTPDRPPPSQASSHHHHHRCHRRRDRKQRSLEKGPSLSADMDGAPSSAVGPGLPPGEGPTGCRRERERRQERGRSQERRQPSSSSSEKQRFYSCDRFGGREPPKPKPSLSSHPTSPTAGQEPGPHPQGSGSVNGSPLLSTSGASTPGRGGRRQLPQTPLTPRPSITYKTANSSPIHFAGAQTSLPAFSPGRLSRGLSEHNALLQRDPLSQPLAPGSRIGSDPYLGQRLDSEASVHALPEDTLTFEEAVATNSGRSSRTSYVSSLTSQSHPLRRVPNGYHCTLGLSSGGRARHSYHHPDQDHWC
Sequence (P54289 25-951 partner limits assumed): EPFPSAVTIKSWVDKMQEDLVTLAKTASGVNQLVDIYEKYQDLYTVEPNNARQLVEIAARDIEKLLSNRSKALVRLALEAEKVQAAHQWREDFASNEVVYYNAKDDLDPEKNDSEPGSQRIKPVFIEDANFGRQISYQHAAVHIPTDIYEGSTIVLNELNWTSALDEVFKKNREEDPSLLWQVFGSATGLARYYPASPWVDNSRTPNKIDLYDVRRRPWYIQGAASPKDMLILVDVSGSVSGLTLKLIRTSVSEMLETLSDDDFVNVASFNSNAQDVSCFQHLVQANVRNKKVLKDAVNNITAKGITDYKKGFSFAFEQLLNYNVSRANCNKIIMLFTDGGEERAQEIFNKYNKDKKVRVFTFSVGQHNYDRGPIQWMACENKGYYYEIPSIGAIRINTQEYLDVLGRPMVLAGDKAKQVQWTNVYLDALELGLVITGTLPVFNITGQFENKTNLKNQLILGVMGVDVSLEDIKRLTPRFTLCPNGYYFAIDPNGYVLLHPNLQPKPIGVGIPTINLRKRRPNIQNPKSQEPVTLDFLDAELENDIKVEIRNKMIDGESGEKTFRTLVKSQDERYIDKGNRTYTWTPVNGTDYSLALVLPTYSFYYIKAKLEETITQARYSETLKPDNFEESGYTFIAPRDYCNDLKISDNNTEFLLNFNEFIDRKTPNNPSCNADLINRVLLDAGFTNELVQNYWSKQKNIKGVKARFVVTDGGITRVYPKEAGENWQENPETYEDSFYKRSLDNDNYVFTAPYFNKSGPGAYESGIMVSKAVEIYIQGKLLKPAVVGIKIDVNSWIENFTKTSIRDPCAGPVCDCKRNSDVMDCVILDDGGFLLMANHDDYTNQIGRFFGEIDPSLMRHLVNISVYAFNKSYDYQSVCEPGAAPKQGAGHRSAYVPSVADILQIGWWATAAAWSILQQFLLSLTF
Sequence (P54289 952-1103 partner limits assumed): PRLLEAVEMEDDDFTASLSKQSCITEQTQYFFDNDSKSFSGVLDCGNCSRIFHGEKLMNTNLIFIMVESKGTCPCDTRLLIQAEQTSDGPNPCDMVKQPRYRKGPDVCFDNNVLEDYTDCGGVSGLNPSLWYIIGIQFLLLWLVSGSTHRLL
Sequence (P54284 whole entry partner): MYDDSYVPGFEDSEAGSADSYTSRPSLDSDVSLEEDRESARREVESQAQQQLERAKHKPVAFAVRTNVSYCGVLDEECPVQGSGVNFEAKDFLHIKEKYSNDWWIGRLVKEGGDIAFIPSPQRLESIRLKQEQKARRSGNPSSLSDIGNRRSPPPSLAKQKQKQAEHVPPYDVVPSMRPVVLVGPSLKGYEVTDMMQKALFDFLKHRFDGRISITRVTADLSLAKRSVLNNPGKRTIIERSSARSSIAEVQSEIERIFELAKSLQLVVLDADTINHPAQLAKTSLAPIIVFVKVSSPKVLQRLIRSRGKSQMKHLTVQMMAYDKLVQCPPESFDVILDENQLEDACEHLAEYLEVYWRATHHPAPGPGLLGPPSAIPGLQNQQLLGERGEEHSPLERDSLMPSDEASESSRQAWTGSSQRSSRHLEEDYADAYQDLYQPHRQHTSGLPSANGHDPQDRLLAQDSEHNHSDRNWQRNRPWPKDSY
methodNotes: Assessment of calcium channel activity using FLIPR (Ca2+ influx in IMR32 cells)
Type: cell-based
appliedConditions: IMR32 cells endogenously expressing human Cav2.2; 60 minute pre-incubation; 2 μM nifedipine; depolarized with 80 mM KCl, 5 mM CaCl2
measuredEndpoint: IC50 (µM)

Please review the entries below; each comes with its answer.
# chemSmiles, valueUnits, IC50
rows = [
    ("O=C(CN1CCC(c2ccccc2)(c2ccccc2)C1=O)NCCC(c1ccccc1)c1ccccc1", "µM", 0.99),
    ("O=C(CN1CCC(c2ccccc2)(c2ccccc2)C1=O)N1CCCC(c2ccccc2)(c2ccccc2)C1", "µM", 0.81),
    ("O=C(CN1CCC(c2ccc(F)cc2)(c2ccc(F)cc2)C1=O)Nc1ccc(C(F)(F)F)nc1", "µM", 3.88),
]

1. O=C1N(S(=O)(=O)c2ccc(C(F)(F)F)cc2)CCC1(c1ccccc1)c1ccccc1
2. COc1ccc(C2(c3ccc(OC)cc3)CCCN(CCCN(C)CCCOc3cc(OC)cc(OC)c3)C2=O)cc1
3. O=C(CN1CCC(c2ccc(F)cc2)(c2ccc(F)cc2)C1=O)NC1CN(Cc2ccccc2)C1
4. O=C(CN1CCCC(c2ccc(F)cc2)(c2ccc(F)cc2)C1=O)N1CCN(C(c2ccccc2)c2ccccc2)CC1
Task item: // sort entries: IC50, high to low Please express your ranking as an ordered list of the labels.
Reply: 1, 4, 3, 2

P. O=C1N(S(=O)(=O)c2cccc(C(F)(F)F)c2)CCCC1(c1ccccc1)c1ccccc1
Q. O=C(CN1CCCC(c2ccccc2)(c2ccccc2)C1=O)NC1CN(Cc2ccc(F)c(C(F)(F)F)c2)C1
R. O=C(CN1CCCC(c2ccccc2)(c2ccccc2)C1=O)N1CCN(Cc2ccc(C(F)(F)F)cc2)CC1
S. O=C(CCCN1CCC(c2ccccc2)(c2ccccc2)C1=O)N1Cc2ccc(C(F)(F)F)cc2C1
T. COc1ccc(CCN(C)C(=O)CN2CCCC(c3ccccc3)(c3ccccc3)C2=O)cc1OC
Task item: Rank entries according to their IC50, from the largest number down. Output spec: labels arranged per the requested ranking.
Reply: T, P, S, R, Q
(T: 11.6 µM, P: 6.78 µM, S: 2.04 µM, R: 1.38 µM, Q: 0.72 µM)

* * *

target: human Cav2.2 (Homo sapiens)
methodNotes: Assessment of calcium channel activity using FLIPR (Ca2+ influx in IMR32 cells)
appliedConditions: IMR32 cells endogenously expressing human Cav2.2; 60 minute pre-incubation; 2 μM nifedipine; depolarized with 80 mM KCl, 5 mM CaCl2
measuredEndpoint: IC50 (µM)

Take a look at these entries with their results.
# compound, valueUnits, IC50
records = [
    ("O=C(CN1CCCC(c2ccccc2)(c2ccccc2)C1=O)N1CCC(C(O)(c2ccccc2)c2ccccc2)CC1", "µM", 1.74),
    ("O=C(CN1CCCC(c2ccccc2)(c2ccccc2)C1=O)N1CCN(Cc2ccc(Cl)cc2Cl)CC1", "µM", 1.8),
    ("O=C(CN1CCCC(c2ccccc2)(c2ccccc2)C1=O)N1CCCC(c2ccccc2)(c2ccccc2)C1", "µM", 3.41),
    ("COc1cc(CN2CCN(CCN3CCC(c4ccc(F)cc4)(c4ccc(F)cc4)C3=O)CC2)cc(OC)c1OC", "µM", 1.76),
    ("COc1ccc2[nH]cc(C3=CCN(C(=O)CN4CCC(c5ccccc5)(c5ccccc5)C4=O)CC3)c2c1", "µM", 8.07),
]

a. O=C(CN1CCC(c2ccc(F)cc2)(c2ccc(F)cc2)C1=O)Nc1ccc(C(F)(F)F)cn1
b. O=C(CN1CCC(c2ccc(F)cc2)C1=O)N1CCc2ccc(C(F)(F)F)cc2C1 (stereo not drawn)
Task item: Which is greater in IC50, the first item a or the second item b ? Give the label under which the chosen entry appears.
Reply: b
(b: 4.32 µM, a: 2.62 µM)

a. C[C@@H]1CN(C(=O)c2cccc(S(=O)(=O)N3CCC(c4ccccc4)(c4ccccc4)C3=O)c2)C[C@H](C)O1
b. O=C1N(Cc2nc(CCc3ccc(Cl)cc3)no2)CCC1(c1ccc(F)cc1)c1ccc(F)cc1
c. O=C1N(Cc2nc(-c3ccc(OC(F)(F)F)cc3)no2)CCCC1(c1ccccc1)c1ccccc1
Task item: // ranking: key=IC50, reverse=True # format: label list in the order the request specifies
Reply: c, b, a

1. O=C(CN1CCCC(c2ccccc2)C1=O)N1CCN(C(c2ccccc2)c2ccccc2)CC1 (stereo not drawn)
2. O=C(CN1CCCC(c2ccccc2)(c2ccccc2)C1=O)N[C@@H]1CCN(Cc2cccc(C(F)(F)F)c2)C1
Task item: Could you determine which record has the numerically smaller IC50? Candidates: 1 and 2 Record your answer as the label of the chosen record.
Reply: 2

A. CC1(NC(=O)CN2CCCC(c3ccccc3)(c3ccccc3)C2=O)CCN(Cc2ccccc2)C1 (stereo not drawn)
B. O=C(CN1CCCC(c2ccccc2)(c2ccccc2)C1=O)N1CCN(Cc2cccc(Cl)c2)CC1
Task item: Of the two listed items, A and B , which carries the larger IC50 figure? // return label of chosen record
Reply: A
(A: 3 µM, B: 1.32 µM)
